Assay: inhibitors of Chlamydomonas gravitaxis, primary screen, whole organism, Chlamydomonas reinhardtii, WT vs cilia-less mutant, absorbance, 96-well (AID 463189);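 further: 0% = wild type cc124 cells in DMSO and 100% = ciliumless bld1 mutant cells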
Settings: OD600 absorbance, 2 days, at 10 µM, hits give high values
metric_name: inhibition (%)

* Cc1nnc(N2CCOCC2)c2ccccc12 | 14.9
* CC(=O)/C(C#N)=C1\NC(=O)C(Cc2ccccc2Cl)S1 (stereo not drawn) | 4.47
* COC(=O)c1sc2nc(N3CCCCC3)c3c(c2c1N)CC(C)(C)N(C)C3 | 7.69
* CCc1nc(N2CCN(C(=O)c3ccccc3)CC2)c(C#N)c2c1COC(C)(C)C2 | 5.51
* CCCc1cc(NCCN2CCOCC2)n2c(nc3ccccc32)c1C#N | -18.9
* CCOC(=O)c1c(C)oc2ccc(OCC(=O)C(C)(C)C)cc12 | -8.35
* CCCCc1nc2sc3c(c2c(=O)[nH]1)CCC3 | 34.8
* COc1cccc(Cn2c(NCc3ccccn3)nc3c2c(=O)n(C)c(=O)n3C)c1 | 4.17
